From: BindingDB's records for doi:10.1124/jpet.102.047092

# MEASURED_ON: Sodium-dependent dopamine transporter (Homo sapiens)
# Sequence (Q01959 whole entry): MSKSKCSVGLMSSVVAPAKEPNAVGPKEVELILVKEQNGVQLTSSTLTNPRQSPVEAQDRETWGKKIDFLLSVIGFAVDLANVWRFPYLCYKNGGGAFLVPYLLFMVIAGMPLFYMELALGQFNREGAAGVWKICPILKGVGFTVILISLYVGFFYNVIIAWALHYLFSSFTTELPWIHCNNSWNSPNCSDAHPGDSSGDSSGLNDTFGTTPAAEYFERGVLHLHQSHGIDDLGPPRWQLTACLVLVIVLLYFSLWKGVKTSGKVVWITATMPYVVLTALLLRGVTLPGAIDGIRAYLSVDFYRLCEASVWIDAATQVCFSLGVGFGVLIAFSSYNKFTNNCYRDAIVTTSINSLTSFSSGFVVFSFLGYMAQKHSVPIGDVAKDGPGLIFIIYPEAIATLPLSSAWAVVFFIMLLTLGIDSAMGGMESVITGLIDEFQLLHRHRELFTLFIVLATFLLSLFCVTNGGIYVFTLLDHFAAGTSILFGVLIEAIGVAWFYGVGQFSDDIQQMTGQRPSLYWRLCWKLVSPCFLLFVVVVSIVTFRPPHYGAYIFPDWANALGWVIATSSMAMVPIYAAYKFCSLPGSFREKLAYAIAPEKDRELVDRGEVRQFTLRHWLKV
Provide the reported Ki of each item.

input: Entry NC(CSSCC(N)C(=O)O)C(=O)O (stereo not drawn) : reported Ki = ?
output: > 10 µM

input: Next molecule: "N[C@H](CS(=O)(=O)O)C(=O)O"
output: > 10 µM

input: For "N[C@H](CCS(=O)O)C(=O)O" then?
output: > 10 µM

input: Note, next up: "N[C@H]1CCSC1=O"
output: > 10 µM

input: And then N[C@@H](CCS(=O)(=O)O)C(=O)O (racemic) , what is it?
output: > 10 µM

input: How about "N[C@@H]1CCSC1=O" ?
output: > 10 µM

input: What do you get for "N[C@@H](CCS(=O)O)C(=O)O" ?
output: > 10 µM

input: Now this one: NC(CS(=O)O)C(=O)O (stereo not drawn)
output: > 10 µM
